All values here come from patent US12509437B2.

LogP by entry:
experimental-details: LogP by HPLC on reversed phase columns (EEC directive 79/831 Annex V.A8)
Format: physicochemical
condition: method [a]

Examples with answers:
Cc1c(C(=O)NC(C(N)=O)C(C)C)sc(Br)c1Br (centres unmarked) [I.051]: 2.58^[a]
Cc1c(C(=O)NC(C(=O)NO)C(C)C)sc(Br)c1Br (centres unmarked) [I.115]: 2.31^[a]
Cc1c(C(=O)NC2(C(N)=S)CC2)sc(Cl)c1Cl [I.159]: 2.54^[a]
CON(C)C(=O)C(NC(=O)c1sc(Br)c(Br)c1C)C(C)C (centres unmarked) [I.061]: 3.71^[a]
CCOC(=O)C(NC(=O)c1sc(Br)c(Br)c1C)(OCC)C(C)C (centres unmarked) [I.112]: 4.80^[a]

Here's the next entry for you.
Entry COC(=O)C1(NC(=O)c2sc(Cl)c(Cl)c2C)CC(C)(C)C1 [I.142] has what LogP? 4.05^[a]

----------
experimental-details: LogP by HPLC on reversed phase columns (EEC directive 79/831 Annex V.A8)
Type: physicochemical
condition: method [a]
measured-property: LogP

CCOC(=O)C1(NC(=O)c2sc(Br)c(Br)c2C)CCCC1 [I.106]: 4.09^[a]
CCSC(=O)C(CC(C)C)NC(=O)c1sc(Br)c(Br)c1C (stereo not drawn) [I.007]: 5.03^[a]
CCOC(=O)C(NC(=O)c1sc(Br)c(Br)c1C)C1CC1 (stereo not drawn) [I.089]: 3.84^[a]
COC(=O)C(NC(=O)c1sc(Br)c(Br)c1C)(C1CC1)C1CC1 [I.093]: 4.01^[a]
Cc1c(C(=O)NC(C(=O)NCC#N)C(C)C)sc(Br)c1Br (stereo not drawn) [I.075]: 2.92^[a]

Entry CCOC(=O)C(NC(=O)c1sc(Br)c(Br)c1C)C(=O)OCC [I.094] has what LogP? 3.87^[a]

----------
Test system: Uromyces appendiculatus
experimental-details: In vivo preventive test on Uromyces appendiculatus (bean rust)
condition: 240 h, 500 ppm of active ingredient, sprayed 72 hours before inoculation, evaluated 10 days after inoculation, read-out: efficacy
measured-property: pest or weed control at 500 ppm

Examples with answers:
COC(=O)[C@H](CCCNC(=N)N)NC(=O)c1sc(Br)c(Br)c1C: 80 to 89%
COC(=O)C(CC(F)F)NC(=O)c1sc(Cl)c(Cl)c1C (stereo not shown): 90 to 100%

Entry CCOC(=O)C(C#N)NC(=O)c1sc(Br)c(Br)c1C (stereo not shown) has what pest or weed control at 500 ppm? 90 to 100%

One more compound: COC(=O)C(Cc1c[nH]cn1)NC(=O)c1sc(Br)c(Br)c1C (stereo not shown) 90 to 100%

One more compound: Cc1c(C(=O)NC(Cc2c[nH]c3ccccc23)C(=O)O)sc(Cl)c1Cl (stereo not shown) 90 to 100%

One more compound: CCOC(=O)C(CO)NC(=O)c1sc(Br)c(Br)c1C (stereo not shown) 90 to 100%

----------
experimental-details: LogP by HPLC on reversed phase columns (EEC directive 79/831 Annex V.A8)
Format: physicochemical
condition: reversed phase HPLC columns; preparation examples; method not indicated; read-out: Log P
measured-property: chromatographic logP

CONC(=O)[C@@H](NC(=O)c1sc(Br)c(Br)c1C)C(C)C [I.074]: 2.77
CCSC(=O)C1(NC(=O)c2sc(Cl)c(Cl)c2C)CC1 [I.049]: 3.67
Cc1c(C(=S)N[C@H](C(=O)O)C(C)C)sc(Br)c1Br [I.031]: 3.72

Entry Cc1c(C(=O)NC(C(=O)O)C2CC2)sc(Br)c1Br (centres unmarked) [I.080] has what chromatographic logP? 2.67

One more molecule: `Cc1c(C(=O)NCC(=O)O)sc(Br)c1Br` 2.05
